system.under.test: BFP-aq (Aequorea victoria, UniProt P07164)
Sequence (P07164 other isoform, or with tags, fused parts or gaps with the stated changes): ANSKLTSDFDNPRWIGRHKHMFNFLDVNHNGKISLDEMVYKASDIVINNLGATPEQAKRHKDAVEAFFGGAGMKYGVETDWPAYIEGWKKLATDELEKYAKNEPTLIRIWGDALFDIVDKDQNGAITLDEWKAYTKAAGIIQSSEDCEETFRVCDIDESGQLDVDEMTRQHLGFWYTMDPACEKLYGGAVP
assay.remarks: biochemical
Assay type: biochemical
Design: The recombinant apoaequorins encoded by piP-HE is composed of 191 amino acids, whose N-terminus starts from Ala-Asn-Ser-; made in house; host or cells: E. coli strain WA802
experimental.conditions: pH 8, read-out: Luminescence activity (%) Initial velocity
Description: Solutions of 50 mM Tris-HCl (pH 8.0), each containing various commercial organic compounds shown in Table 3, were prepared and pre-warmed at 25° C. The substrate coelenterazine (1 μg) was added to the solutions (200 μl) containing each of these compounds.
Exercise: state measured activity at 150000 µM for each of the compounds provided.
Give bare numbers, in %.

Solved entries (count: 6):
c1c[nH]cn1
205
N[C@@H](Cc1c[nH]cn1)C(=O)O
27
C[C@H](N)C(=O)O
59
Cc1c[nH]cn1
95
CCN(CC)CC
12
NCCc1c[nH]cn1
26

Exam item: Entry "NCCCC[C@H](N)C(=O)O" has what activity at 150000 µM?
Marked response: 10
